- System Under Test: rat adrenergic α1B receptor (Rattus norvegicus, UniProt P15823)
- Construct: rat adrenergic α1B receptor obtained from Wistar Rat liver; from tissue; host or cells: Wistar rat liver
- Sequence (P15823 whole entry): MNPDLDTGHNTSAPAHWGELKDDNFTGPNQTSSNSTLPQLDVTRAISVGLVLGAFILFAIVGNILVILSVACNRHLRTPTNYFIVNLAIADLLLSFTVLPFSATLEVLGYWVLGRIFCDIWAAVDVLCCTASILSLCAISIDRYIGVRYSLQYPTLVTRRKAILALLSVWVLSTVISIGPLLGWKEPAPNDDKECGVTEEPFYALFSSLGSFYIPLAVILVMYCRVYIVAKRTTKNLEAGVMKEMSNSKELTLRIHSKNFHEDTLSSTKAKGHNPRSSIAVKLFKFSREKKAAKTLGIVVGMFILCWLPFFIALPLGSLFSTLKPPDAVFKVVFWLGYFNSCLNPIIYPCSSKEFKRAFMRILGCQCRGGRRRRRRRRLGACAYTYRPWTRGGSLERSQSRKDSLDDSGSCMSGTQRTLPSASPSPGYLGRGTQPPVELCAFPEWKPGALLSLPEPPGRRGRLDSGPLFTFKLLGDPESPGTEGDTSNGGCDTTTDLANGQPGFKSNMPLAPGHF
- Test Name: Radioligand binding, adrenergic α1B ([3H]Prazosin)
- Assay Setup: read-out: Percentage inhibition of ligand binding, Adrenergic α1B (0.03 μM), compound at 0.03 μM; [3H]Prazosin; repeat datapoints each shown
Measurement Type: inhibition at 0.03 µM (%)

compound=Cc1ccc2c(c1)c1c(n2CCc2ccc(F)cc2)CCN(C)C1 uom=% result_value=46
compound=C/C(=C\n1c2c(c3cc(Cl)ccc31)CN(C)CC2)c1ccncc1 uom=% result_value=63
compound="Cc1cnc2c(c1)c1c(n2CCc2ccc(C(N)=O)nc2)CCN2CCCC12 (centres unmarked)" uom=% result_value=79
compound=Cc1ccc2c(c1)c1c(n2CNc2ccccn2)CCN(C)C1 uom=% result_value=4
compound="Cc1ccc(C(C)(O)Cn2c3c(c4cc(Cl)ccc42)CN(C)CC3)cn1 (single isomer, unassigned) [93a]" uom=% result_value=13
compound="Cc1ccc2c(c1)c1c(n2CC(O)c2ccncc2)CCN2CCCC12 (single isomer, unassigned) [129c]" uom=% result_value=86
compound=C/C(=C\n1c2c(c3cc(C)ccc31)CN(C)CC2)c1sccc1C uom=% result_value=26
compound=Cc1ccc(CCn2c3c(c4cc(Cl)ccc42)CN(C)CC3)cc1 uom=% result_value=60
compound="Cc1cnc2c(c1)c1c(n2CC(C)(O)c2ccc(C)nc2)CCN2CCCC12 (single isomer, unassigned) [148b]" uom=% result_value=35
compound=COc1ccc(CCn2c3c(c4cc(C)ccc42)CN(C)CC3)cc1 uom=% result_value=79
compound=CCN1CCc2c(c3cc(C)ccc3n2CCc2ccc(C)cc2)C1 uom=% result_value=29
